Data credit: patent US10508120B2

Listed here: items and their measured pIC50.
target: JAK2/JAK2 homdimeric complex (Homo sapiens (Human)); assay: GM-CSF Induced pSTAT5 in Human PBMC; conditions: GM-CSF 5 ng/mL for 20 minutes, pSTAT5 by MSD, read-out: PBMC_GMCSF_pSTAT5 IC50
Sequence (O60674 whole entry): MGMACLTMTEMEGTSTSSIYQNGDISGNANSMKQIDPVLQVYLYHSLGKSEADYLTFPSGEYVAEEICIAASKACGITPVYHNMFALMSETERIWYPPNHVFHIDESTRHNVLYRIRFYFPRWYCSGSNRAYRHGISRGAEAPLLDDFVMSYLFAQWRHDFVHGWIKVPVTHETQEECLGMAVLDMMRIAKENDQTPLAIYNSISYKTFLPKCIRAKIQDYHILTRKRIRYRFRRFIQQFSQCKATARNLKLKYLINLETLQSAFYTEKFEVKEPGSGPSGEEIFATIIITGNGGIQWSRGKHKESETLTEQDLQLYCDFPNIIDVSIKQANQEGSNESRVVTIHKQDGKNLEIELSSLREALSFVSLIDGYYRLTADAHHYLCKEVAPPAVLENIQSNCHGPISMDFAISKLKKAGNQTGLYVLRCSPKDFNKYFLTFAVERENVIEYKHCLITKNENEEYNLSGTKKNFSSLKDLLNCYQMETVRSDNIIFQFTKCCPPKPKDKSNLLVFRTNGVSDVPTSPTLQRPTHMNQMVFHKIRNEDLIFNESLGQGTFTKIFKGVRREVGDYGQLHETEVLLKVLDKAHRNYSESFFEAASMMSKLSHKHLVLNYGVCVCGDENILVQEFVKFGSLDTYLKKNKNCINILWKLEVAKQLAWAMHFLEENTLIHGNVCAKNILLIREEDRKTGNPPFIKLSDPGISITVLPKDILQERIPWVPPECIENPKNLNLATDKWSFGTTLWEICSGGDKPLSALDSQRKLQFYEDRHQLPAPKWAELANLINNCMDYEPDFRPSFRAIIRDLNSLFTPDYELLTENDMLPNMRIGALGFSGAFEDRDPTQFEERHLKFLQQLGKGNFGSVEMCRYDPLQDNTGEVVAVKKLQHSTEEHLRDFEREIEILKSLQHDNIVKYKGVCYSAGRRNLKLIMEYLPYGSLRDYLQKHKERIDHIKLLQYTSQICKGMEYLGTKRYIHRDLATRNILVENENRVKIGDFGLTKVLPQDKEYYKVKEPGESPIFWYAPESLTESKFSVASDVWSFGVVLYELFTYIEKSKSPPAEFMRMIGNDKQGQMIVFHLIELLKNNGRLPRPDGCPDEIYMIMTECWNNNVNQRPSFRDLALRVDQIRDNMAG
Sequence (P32927 17-897 partner): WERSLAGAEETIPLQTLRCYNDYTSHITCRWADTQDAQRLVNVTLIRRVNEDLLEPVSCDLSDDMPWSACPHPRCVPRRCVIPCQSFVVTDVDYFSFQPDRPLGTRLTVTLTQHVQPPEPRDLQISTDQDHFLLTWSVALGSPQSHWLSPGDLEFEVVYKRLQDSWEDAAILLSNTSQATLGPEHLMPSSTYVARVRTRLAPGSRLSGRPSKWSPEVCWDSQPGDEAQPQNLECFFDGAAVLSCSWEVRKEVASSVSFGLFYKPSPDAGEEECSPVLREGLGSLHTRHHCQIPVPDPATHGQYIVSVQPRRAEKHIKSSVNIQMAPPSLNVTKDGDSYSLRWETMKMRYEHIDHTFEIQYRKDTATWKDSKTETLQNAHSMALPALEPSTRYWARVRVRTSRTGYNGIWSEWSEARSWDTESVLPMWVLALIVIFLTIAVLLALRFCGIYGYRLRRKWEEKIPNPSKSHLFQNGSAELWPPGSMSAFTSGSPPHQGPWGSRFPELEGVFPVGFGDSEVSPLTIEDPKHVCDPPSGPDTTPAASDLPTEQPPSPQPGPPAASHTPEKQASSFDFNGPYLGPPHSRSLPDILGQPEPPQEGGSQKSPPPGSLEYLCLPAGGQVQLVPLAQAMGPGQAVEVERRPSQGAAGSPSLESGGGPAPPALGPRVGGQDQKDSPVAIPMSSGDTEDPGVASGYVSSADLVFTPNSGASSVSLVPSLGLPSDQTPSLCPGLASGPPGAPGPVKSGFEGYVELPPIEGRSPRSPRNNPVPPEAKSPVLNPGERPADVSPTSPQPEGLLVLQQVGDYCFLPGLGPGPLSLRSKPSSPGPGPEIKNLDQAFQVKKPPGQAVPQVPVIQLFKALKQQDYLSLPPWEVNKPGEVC
pIC50: −log10 of the molar value.

Compound | pIC50
CNc1cc(Nc2cccn(CC3CCCCO3)c2=O)nc2c(C(=O)N[C@H]3C[C@H]3F)cnn12 (some centres unmarked) | < 4.30
CNc1cc(Nc2cccn(-c3ncco3)c2=O)nc2c(C(=O)N[C@@H]3CC[C@H]3OC)cnn12 | < 4.30
CNc1cc(Nc2cccnc2OC(C)C)nc2c(C(=O)N[C@H]3C[C@H]3F)cnn12 | < 4.30
CNc1cc(Nc2cc(Cl)cn(-c3ccnc(C)n3)c2=O)nc2c(C(=O)N[C@H]3C[C@H]3F)cnn12 | < 5.60
CNc1cc(Nc2cccnc2OC2CC2)nc2c(C(=O)NC3CCC3O)cnn12 (centres unmarked) | < 4.30
CNc1cc(Nc2cccc3ocnc23)nc2c(C(=O)N[C@@H]3CC[C@H]3O)cnn12 [I-857] | < 4.30
CNc1cc(Nc2cccn(C3CCCCC3)c2=O)nc2c(C(=O)N[C@@H]3CC[C@@H]3O)cnn12 | < 4.30
CNc1cc(Nc2cccn(-c3nc(C)co3)c2=O)nc2c(C(=O)N[C@H]3CC[C@@H]3OC)cnn12 [I-890] | < 4.90
CNc1cc(Nc2cc(C)cc(C)c2)nc2c(C(=O)NC3CC3)cnn12 | < 4.30
CNc1cc(Nc2cccn(-c3cnc(C(C)(C)O)cn3)c2=O)nc2c(C(=O)NC3CCC3)cnn12 | < 4.30
CNc1cc(Nc2cccc3ocnc23)nc2c(C(=O)NCC(C)(C)CO)cnn12 | < 5.60
CNc1cc(Nc2cccn(-c3cnco3)c2=O)nc2c(C(=O)N[C@@H]3C[C@@H]3F)cnn12 | < 5.60
CNc1cc(Nc2cccnc2OC)nc2c(C(=O)NC[C@H](C)CO)cnn12 | < 4.30
CNc1cc(Nc2cccn([C@@H]3CCC[C@H](OC)C3)c2=O)nc2c(C(=O)NC3CC3)cnn12 | < 4.30
CCONC(=O)c1cnn2c(NC)cc(Nc3cccnc3OC)nc12 | < 4.90
CNc1cc(Nc2cccn(-c3ncc(C)s3)c2=O)nc2c(C(=O)NC3CC3)cnn12 | < 5.60
CNc1cc(-c2cn(C(C)C)c3ncccc23)nc2c(C(=O)N[C@H]3CC[C@@H]3O)cnn12 [I-586] | < 4.30

###

Below, each of the compounds is paired with its reported inhibition at 10 µM value.
biological target: JAK2 kinase domain (JH1) (Homo sapiens (Human), UniProt O60674); experiment: JAK2 Radioactive Kinase Assay; type: biochemical; conditions: compound at 10 μM; ATP 10 μM; read-out: JAK2 JH1% Inhibition @ 10 μM
Sequence (O60674 849-1124): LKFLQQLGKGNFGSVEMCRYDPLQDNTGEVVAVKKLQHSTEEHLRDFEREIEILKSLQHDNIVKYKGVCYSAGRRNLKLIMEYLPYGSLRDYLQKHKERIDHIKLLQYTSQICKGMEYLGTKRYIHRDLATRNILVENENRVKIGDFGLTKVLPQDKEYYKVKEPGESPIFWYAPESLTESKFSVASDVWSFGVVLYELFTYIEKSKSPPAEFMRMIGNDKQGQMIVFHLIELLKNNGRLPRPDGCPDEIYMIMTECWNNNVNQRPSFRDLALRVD

Smiles Notation | inhibition at 10 µM
CNc1cc(Nc2cccnc2OC2CC2)nc2c(C(=O)NCCC(C)(C)O)cnn12 | < 50%
CNc1cc(Nc2cccn(-c3cc(C)n(C)n3)c2=O)nc2c(C(=O)N[C@H]3C[C@H]3F)cnn12 | < 50%
CNc1cc(Nc2cccn(-c3ccc(C)nc3)c2=O)nc2c(C(=O)NCC(C)(C)CO)cnn12 | < 50%
CNc1cc(-c2cn(CCN3CCOCC3)c3ncccc23)nc2c(C(=O)N[C@H]3C[C@H]3F)cnn12 | < 50%
